- Test system: Danio rerio larvae (5 dpf)
- testName: habituation (activity change first vs second 5 min of 1-s interval sound, period 17) minus DMSO control (percentage points); higher = larger habituation measure than DMSO larvae
- settings: 10 µM; exposure time: 3 h pre-incubation + 3 h imaging
Where a name gives a salt, the structure may show the parent alone.
Classification field: yes = habituation at or over 0.6; no = habituation under 0.6.

compound: Cc1cn([C@H]2C=C[C@@H](CO)O2)c(=O)[nH]c1=O
classification: no

compound: COc1cc2ncnc(Nc3ccc(F)c(Cl)c3)c2cc1OCCCN1CCOCC1
classification: yes

compound: COc1ccccc1OCCNCC(O)COc1cccc2[nH]c3ccccc3c12 (stereo not drawn)
classification: no

compound: CN(CCOc1ccc(NS(C)(=O)=O)cc1)CCc1ccc(NS(C)(=O)=O)cc1 [Dofetilide]
classification: yes

compound: CN1CCC[C@@H]1Cc1c[nH]c2ccc(CCS(=O)(=O)c3ccccc3)cc12 [Eletriptan hydrobromide]
classification: yes

compound: OCCOCCN1CCN(C2=Nc3ccccc3Sc3ccccc32)CC1 [Quetiapine hemifumarate]
classification: no

compound: O=c1[nH]c(=O)n([C@H]2C[C@H](O)[C@@H](CO)O2)cc1C(F)(F)F
classification: yes

###

- Tested on: Danio rerio larvae (5 dpf)
- testName: combined upward orientation toward moving lines (periods 7-14) minus DMSO control (percentage points); higher = more orientation with moving lines than DMSO larvae
- settings: 10 µM; exposure time: 3 h pre-incubation + 3 h imaging
Structures can show the parent of a compound that is named as a salt.
parameter: combined upward orientation toward moving lines

compound: N#C[C@@H]1C[C@@H]2C[C@@H]2N1C(=O)[C@@H](N)C12CC3CC(CC(O)(C3)C1)C2 [Saxagliptin hydrochloride]
system: Danio rerio larvae (5 dpf)
reportedValue: -3.59
--
compound: COc1ccccc1Oc1c(NS(=O)(=O)c2ccc(C(C)(C)C)cc2)nc(-c2ncccn2)nc1OCCO
system: Danio rerio larvae (5 dpf)
reportedValue: -0.697
--
compound: O=C1CCc2ccc(OCCCCN3CCN(c4cccc(Cl)c4Cl)CC3)cc2N1
system: Danio rerio larvae (5 dpf)
reportedValue: -7.24
--
compound: CN(C)CCc1c[nH]c2ccc(C[C@H]3COC(=O)N3)cc12
system: Danio rerio larvae (5 dpf)
reportedValue: -1.47

###

- System: Danio rerio larvae (5 dpf)
- testName: 1-h baseline activity (% time moving, periods 1-6) minus DMSO control (percentage points); higher = more locomotor activity than DMSO larvae
- settings: 10 µM; exposure time: 3 h pre-incubation + 3 h imaging
Where a name gives a salt, the structure may show the parent alone.
Classification field: t = 1-h baseline activity at or over -0.2; f = 1-h baseline activity under -0.2.

compound: N[C@@H]1[C@H]2CN(c3nc4c(cc3F)c(=O)c(C(=O)O)cn4-c3ccc(F)cc3F)C[C@@H]12 [Trovafloxacin mesylate]
system: Danio rerio larvae (5 dpf)
classification: t
--
compound: CCOc1nc2cccc(C(=O)O)c2n1Cc1ccc(-c2ccccc2-c2noc(=O)[nH]2)cc1 [Azilsartan]
system: Danio rerio larvae (5 dpf)
classification: t
--
compound: Brc1c(NC2=NCCN2)ccc2nccnc12
system: Danio rerio larvae (5 dpf)
classification: f
--
compound: CCN(CC)CCNC(=O)c1c(C)[nH]c(/C=C2\C(=O)Nc3ccc(F)cc32)c1C [Sunitinib malate]
system: Danio rerio larvae (5 dpf)
classification: f
--
compound: CN(CCOc1ccc(NS(C)(=O)=O)cc1)CCc1ccc(NS(C)(=O)=O)cc1 [Dofetilide]
system: Danio rerio larvae (5 dpf)
classification: t
--
compound: Nc1ncn([C@@H]2O[C@H](CO)[C@@H](O)[C@H]2O)c(=O)n1 [5-Azacytidine]
system: Danio rerio larvae (5 dpf)
classification: t
--
compound: Nc1cccc2c1CN(C1CCC(=O)NC1=O)C2=O (stereo not drawn) [Lenalidomide]
system: Danio rerio larvae (5 dpf)
classification: f
--
compound: C/C(O)=C(\C#N)C(=O)Nc1ccc(C(F)(F)F)cc1 [Teriflunomide]
system: Danio rerio larvae (5 dpf)
classification: f

###

- Test system: Danio rerio larvae (5 dpf)
- testName: combined upward orientation toward moving lines (periods 7-14) minus DMSO control (percentage points); higher = more orientation with moving lines than DMSO larvae
- settings: 10 µM; exposure time: 3 h pre-incubation + 3 h imaging
Where a name gives a salt, the structure may show the parent alone.
parameter: combined upward orientation toward moving lines

molecule: CC/C(=C(\c1ccccc1)c1ccc(OCCN(C)C)cc1)c1ccccc1 [Tamoxifen citrate]
reportedValue: -3.88

molecule: CC1=Nc2ccc(Cl)cc2S(=O)(=O)N1 [Diazoxide]
reportedValue: -1.53

molecule: Cc1ccc(O)c([C@H](CCN(C(C)C)C(C)C)c2ccccc2)c1 [Tolterodine L-tartrate]
reportedValue: 0.814

molecule: CC(C)C(=O)OCC(=O)[C@@]12O[C@H](C3CCCCC3)O[C@@H]1C[C@H]1[C@@H]3CCC4=CC(=O)C=C[C@]4(C)[C@H]3[C@@H](O)C[C@@]12C [Ciclesonide]
reportedValue: -8.95

molecule: CC(C)c1ccc2oc3nc(N)c(C(=O)O)cc3c(=O)c2c1
reportedValue: -5.36

molecule: Nc1nc(F)nc2c1ncn2[C@@H]1O[C@H](CO)[C@@H](O)[C@@H]1O
reportedValue: -6.81

molecule: CCCCC1=NC2(CCCC2)C(=O)N1Cc1ccc(-c2ccccc2-c2nnn[nH]2)cc1
reportedValue: -8.87

molecule: COc1ccccc1OCCNCC(O)COc1cccc2[nH]c3ccccc3c12 (stereo not drawn)
reportedValue: -11.6

molecule: COc1cc2nc(N3CCN(C(=O)c4ccco4)CC3)nc(N)c2cc1OC [Prazosin hydrochloride]
reportedValue: -10.6

molecule: COc1ccc(-c2ccc3cc(C(=O)O)ccc3c2)cc1C12CC3CC(CC(C3)C1)C2
reportedValue: -8.09

molecule: CCCCC(=O)N(Cc1ccc(-c2ccccc2-c2nnn[nH]2)cc1)[C@H](C(=O)O)C(C)C
reportedValue: 2.9

molecule: Nc1cc(N2CCCCC2)nc(N)[n+]1[O-]
reportedValue: -2.16

molecule: Nc1cccc2c1CN(C1CCC(=O)NC1=O)C2=O (stereo not drawn) [Lenalidomide]
reportedValue: 2.56

molecule: Nc1ncn([C@H]2C[C@H](O)[C@@H](CO)O2)c(=O)n1
reportedValue: -6.22

molecule: CN1CCC[C@@H]1CCO[C@](C)(c1ccccc1)c1ccc(Cl)cc1 [Clemastine fumarate]
reportedValue: 4.64

molecule: CCOC(=O)N1CCC(=C2c3ccc(Cl)cc3CCc3cccnc32)CC1
reportedValue: -3.52

molecule: O=C(Nc1c(Cl)cncc1Cl)c1ccc(OC(F)F)c(OCC2CC2)c1
reportedValue: -2.52

molecule: Nc1nc2c(ncn2COCCO)c(=O)[nH]1
reportedValue: 0.15

###

- System: Danio rerio larvae (5 dpf)
- testName: habituation (activity change first vs second 5 min of 1-s interval sound, period 17) minus DMSO control (percentage points); higher = larger habituation measure than DMSO larvae
- settings: 10 µM; exposure time: 3 h pre-incubation + 3 h imaging
Where a name gives a salt, the structure may show the parent alone.

molecule: CCCc1nc2c(C)cc(-c3nc4ccccc4n3C)cc2n1Cc1ccc(-c2ccccc2C(=O)O)cc1
habituation: -1.73
--
molecule: COc1ccc(-c2ccc3cc(C(=O)O)ccc3c2)cc1C12CC3CC(CC(C3)C1)C2
habituation: 1.1
--
molecule: Nc1ccn([C@@H]2O[C@H](CO)[C@@H](O)C2(F)F)c(=O)n1 [Gemcitabine hydrochloride]
habituation: -1.55
--
molecule: C[C@H]1C[C@@H]2[C@H]([C@@H](O)C[C@@]3(C)[C@H]2CC[C@]3(O)C(=O)CO)[C@@]2(C)C=CC(=O)C=C12
habituation: 0.909
--
molecule: Cc1c(-c2ccc(O)cc2)n(Cc2ccc(OCCN3CCCCCC3)cc2)c2ccc(O)cc12 [Bazedoxifene acetate]
habituation: 0.95
--
molecule: O=C(O)c1cc(/N=N/c2ccc(S(=O)(=O)Nc3ccccn3)cc2)ccc1O
habituation: 1.27
--
molecule: CCCCCCCCc1ccc(CCC(N)(CO)CO)cc1
habituation: -0.454
--
molecule: Cc1ccsc1C(=CCCN1CCC[C@@H](C(=O)O)C1)c1sccc1C [Tiagabine hydrochloride]
habituation: 6.37
--
molecule: CC1=Nc2ccc(Cl)cc2S(=O)(=O)N1 [Diazoxide]
habituation: 8.87
--
molecule: CCOC(=O)N1CCC(=C2c3ccc(Cl)cc3CCc3cccnc32)CC1
habituation: -7.35
--
molecule: Cc1cccc(CN2CCN(C(c3ccccc3)c3ccc(Cl)cc3)CC2)c1 (configuration not stated) [Meclizine dihydrochloride]
habituation: -12.4
--
molecule: CCN(Cc1ccncc1)C(=O)C(CO)c1ccccc1 (configuration not stated) [Tropicamide]
habituation: 2.39
--
molecule: CCCN(CCc1cccs1)[C@H]1CCc2c(O)cccc2C1 [Rotigotine hydrochloride]
habituation: -11.4
--
molecule: OCCN(CCO)c1nc(N2CCCCC2)c2nc(N(CCO)CCO)nc(N3CCCCC3)c2n1
habituation: 5.96
--
molecule: Nc1cc(N2CCCCC2)nc(N)[n+]1[O-]
habituation: 7.65
--
molecule: CCOC(=O)c1ncn2c1CN(C)C(=O)c1cc(F)ccc1-2
habituation: -2.62
--
molecule: Cc1nnc(C(C)C)n1C1C[C@H]2CC[C@@H](C1)N2CC[C@H](NC(=O)C1CCC(F)(F)CC1)c1ccccc1 (stereo in doubt)
habituation: 3.31
--
molecule: Cc1ccc(N(CC2=NCCN2)c2cccc(O)c2)cc1 [Phentolamine Mesylate]
habituation: 8.8
--
molecule: N[C@@H]1[C@H]2CN(c3nc4c(cc3F)c(=O)c(C(=O)O)cn4-c3ccc(F)cc3F)C[C@@H]12 [Trovafloxacin mesylate]
habituation: -4.07
--
molecule: CS(=O)(=O)CCNCc1ccc(-c2ccc3ncnc(Nc4ccc(OCc5cccc(F)c5)c(Cl)c4)c3c2)o1
habituation: -1.33
--
molecule: COc1cc2nc(N3CCN(C(=O)c4ccco4)CC3)nc(N)c2cc1OC [Prazosin hydrochloride]
habituation: 0.443
--
molecule: CC/C(=C(\c1ccccc1)c1ccc(OCCN(C)C)cc1)c1ccccc1 [Tamoxifen citrate]
habituation: -7.1
--
molecule: O=C1CCc2cc(OCCCCc3nnnn3C3CCCCC3)ccc2N1
habituation: 0.0793
--
molecule: CC(C)CN(C[C@@H](O)[C@H](Cc1ccccc1)NC(=O)O[C@H]1CO[C@H]2OCC[C@H]21)S(=O)(=O)c1ccc(N)cc1
habituation: 0.657
--
molecule: CCOc1ccccc1OCCN[C@H](C)Cc1ccc(OC)c(S(N)(=O)=O)c1 [Tamsulosin hydrochloride]
habituation: 1.59
--
molecule: Cc1cc(C2CCCCC2)n(O)c(=O)c1
habituation: -2.51
--
molecule: CCOC(=O)C1=C(C)NC(C)=C(C(=O)OC)C1c1cccc(Cl)c1Cl (configuration not stated)
habituation: -11.4
--
molecule: CCOc1nc2cccc(C(=O)O)c2n1Cc1ccc(-c2ccccc2-c2nnn[nH]2)cc1
habituation: 5.98
--
molecule: COc1c(C)c2c(c(O)c1C/C=C(\C)CCC(=O)O)C(=O)OC2
habituation: 1.82
--
molecule: CC(CCc1ccc(O)cc1)NCCc1ccc(O)c(O)c1 (configuration not stated) [Dobutamine hydrochloride]
habituation: 3.31
--
molecule: C[C@]12CCC(=O)C=C1CC[C@@H]1[C@@H]2[C@@H](O)C[C@@]2(C)[C@H]1CC[C@]2(O)C(=O)CO [Hydrocortisone]
habituation: 4.44
--
molecule: CC(=O)O[C@H]1C(=O)[C@@]2(C)[C@H]([C@H](OC(=O)c3ccccc3)[C@]3(O)C[C@H](OC(=O)[C@H](O)[C@@H](NC(=O)c4ccccc4)c4ccccc4)C(C)=C1C3(C)C)[C@]1(OC(C)=O)CO[C@@H]1C[C@@H]2O
habituation: -3.28
